Source: ChEMBL document CHEMBL3352744

- protocol-summary: Oral bioavailability in Sprague-Dawley rat at 5 mg/kg
- Format: ADME, organism-based
- condition-description: in vivo
quantity-kind: bioavailability (%)

> print(dat)
                            smiles.notation    quantity.kind  scale.unit  assay.result
1  C[C@]1(C(=O)N(CCCC(=O)O)Cc2cccc(Cl)c2)CCN1C(=O)c1csc2ccccc12  bioavailability           %            47

* * *

- protocol-summary: Stability in rat liver microsomes assessed as parent compound remaining at 3 uM incubated for 60 mins by LC-MS/MS method
- Assay type: ADME
- condition-description: read-out: Stability
Collected remaining at 1 h, 3 µM values appear next to each entry.
quantity-kind: remaining at 1 h, 3 µM (%)

> print(dat)
                                    compound           quantity.kind  scale.unit  assay.result
 1  Cc1cc(C)cc(CC(=O)N2CCC2(C)C(=O)N(C)Cc2ccc(Cl)cc2)c1 (stereo not given)  remaining at 1 h, 3 µM           %             0
 2  CC1(C(=O)NCc2ccc(Cl)cc2)CCN1C(=O)Cc1csc2ccccc12 (stereo not given)  remaining at 1 h, 3 µM           %            11
 3  CC1(C(=O)N(CCO)Cc2ccc(Cl)cc2)CCN1C(=O)Cc1csc2ccccc12 (stereo not given)  remaining at 1 h, 3 µM           %             1
 4  CC1(C(=O)N(CC(=O)O)Cc2ccc(Cl)cc2)CCN1C(=O)Cc1noc2ccccc12 (stereo not given)  remaining at 1 h, 3 µM           %           100
 5  COC(=O)CCCN(Cc1ccc(Cl)cc1)C(=O)C1(C)CCN1C(=O)Cc1cc(C)cc(C)c1 (stereo not given)  remaining at 1 h, 3 µM           %             0
 6  CC1(C(=O)N(CC(=O)O)Cc2ccc(Cl)cc2)CCN1C(=O)Cc1csc2ccccc12 (stereo not given)  remaining at 1 h, 3 µM           %            56
 7  CC1(C(=O)N(CC(=O)O)Cc2ccc(Cl)cc2)CCN1C(=O)Cc1coc2ccccc12 (stereo not given)  remaining at 1 h, 3 µM           %            81
 8  CCN(Cc1ccc(Cl)cc1)C(=O)C1(C)CCN1C(=O)Cc1cc(C)cc(C)c1 (stereo not given)  remaining at 1 h, 3 µM           %             7
 9  CN(Cc1ccc(Cl)cc1)C(=O)C1(C)CCN1C(=O)Cc1csc2ccccc12 (stereo not given)  remaining at 1 h, 3 µM           %             0
10  CNC(=O)CN(Cc1ccc(Cl)cc1)C(=O)C1(C)CCN1C(=O)Cc1cc(C)cc(C)c1 (stereo not given)  remaining at 1 h, 3 µM           %             5
11  Cc1cc(C)cc(CC(=O)N2CCC2(C)C(=O)N(CC(N)=O)Cc2ccc(Cl)cc2)c1 (stereo not given)  remaining at 1 h, 3 µM           %             0
12  Cc1cc(C)cc(CC(=O)N2CCC2(C)C(=O)N(CC(=O)O)Cc2ccc(Cl)cc2)c1 (stereo not given)  remaining at 1 h, 3 µM           %           100
13  Cc1cc(C)cc(CC(=O)N2CCC2(C)C(=O)NCc2ccc(Cl)cc2)c1 (stereo not given)  remaining at 1 h, 3 µM           %             0
14  CC1(C(=O)N(CC#N)Cc2ccc(Cl)cc2)CCN1C(=O)Cc1csc2ccccc12 (stereo not given)  remaining at 1 h, 3 µM           %             2
15  Cc1cc(C)cc(CC(=O)N2CCC2(C)C(=O)N(CC(=O)N(C)C)Cc2ccc(Cl)cc2)c1 (stereo not given)  remaining at 1 h, 3 µM           %             0
